# target under test: Cathepsin B (Homo sapiens, UniProt P07858)
# test summary: Cathepsin B (CatB) cleavage assay
# Format: biochemical
# condition summary: norfloxacin linker compounds; 4 h
Can you tell me % Parent remaining after incubation with CatB, T = 4 h for the items I'm about to list?
# output: bare number, implied unit %

Incoming: Request: % Parent remaining after incubation with CatB, T = 4 h, test system Cathepsin B (Homo sapiens, UniProt P07858), entry CCn1cc(C(=O)O)c(=O)c2cc(F)c(N3CCN(C(=O)OCc4ccc(NC(=O)[C@H](CCNC(=N)N)NC(=O)[C@@H](NC(=O)[C@H](CCC(=O)O)NC(=O)CCCC(=O)N(C)C)C(C)C)cc4)CC3)cc21 [BCY9695]
Outgoing: 0

Incoming: Request: % Parent remaining after incubation with CatB, T = 4 h, test system Cathepsin B (Homo sapiens, UniProt P07858), entry CCn1cc(C(=O)O)c(=O)c2cc(F)c(N3CCN(C(=O)OCc4ccc(NC(=O)[C@H](CN)NC(=O)[C@@H](NC(=O)[C@H](CCC(=O)O)NC(=O)CCCC(=O)N(C)C)C(C)C)cc4)CC3)cc21 [BCY10297]
Outgoing: 15

Incoming: Request: % Parent remaining after incubation with CatB, T = 4 h, test system Cathepsin B (Homo sapiens, UniProt P07858), entry CCn1cc(C(=O)O)c(=O)c2cc(F)c(N3CCN(C(=O)OCc4ccc(NC(=O)[C@H](CNC(=N)N)NC(=O)[C@@H](NC(=O)CCCC(=O)N(C)C)C(C)C)cc4)CC3)cc21 [BCY10300]
Outgoing: 10

Incoming: Request: % Parent remaining after incubation with CatB, T = 4 h, test system Cathepsin B (Homo sapiens, UniProt P07858), entry CCn1cc(C(=O)O)c(=O)c2cc(F)c(N3CCN(C(=O)OCc4ccc(NC(=O)[C@H](CCN)NC(=O)[C@@H](NC(=O)CCCC(=O)N(C)C)C(C)C)cc4)CC3)cc21 [BCY9474]
Outgoing: 0

Incoming: Request: % Parent remaining after incubation with CatB, T = 4 h, test system Cathepsin B (Homo sapiens, UniProt P07858), entry CCn1cc(C(=O)O)c(=O)c2cc(F)c(N3CCN(C(=O)OCc4ccc(NC(=O)[C@H](CCCNC(N)=O)NC(=O)[C@@H](NC(=O)[C@H](CCC(=O)O)NC(=O)CCCC(=O)N(C)C)C(C)C)cc4)CC3)cc21 [BCY9696]
Outgoing: 0

Incoming: Request: % Parent remaining after incubation with CatB, T = 4 h, test system Cathepsin B (Homo sapiens, UniProt P07858), entry CCn1cc(C(=O)O)c(=O)c2cc(F)c(N3CCN(C(=O)OCc4ccc(NC(=O)[C@H](CCNC(=N)N)NC(=O)[C@@H](NC(=O)CCCC(=O)N(C)C)C(C)C)cc4)CC3)cc21 [BCY9423]
Outgoing: 0

Incoming: Request: % Parent remaining after incubation with CatB, T = 4 h, test system Cathepsin B (Homo sapiens, UniProt P07858), entry CCn1cc(C(=O)O)c(=O)c2cc(F)c(N3CCN(C(=O)OCc4ccc(NC(=O)[C@H](CCN)NC(=O)[C@@H](NC(=O)[C@H](CCC(=O)O)NC(=O)CCCC(=O)N(C)C)C(C)C)cc4)CC3)cc21 [BCY10122]
Outgoing: 0

Hello, the source for this data is patent US12540161B2, in case you need it.
